meta.source: the MegaScale stability set (Tsuboyama et al. 2023)

B1: EHEE_rd2_0601 (parent)
chain: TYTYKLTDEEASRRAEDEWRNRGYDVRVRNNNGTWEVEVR

- Variants of: B1
- assaySummary: folding stability dG (cDNA display proteolysis); higher = more stable
- protocolConditions: PBS, room temperature
measurementKind: folding stability dG
Respond with a number, then the unit of measure.

Solved entries:
R29F: 6.8 kJ/mol
E18V: 6.53 kJ/mol

## Task # return recorded folding stability dG for input E18A
## Result 6.05 kJ/mol
